These data points were gathered from PubChem BioAssay.

- protocol summary: growth suppression of PTEN-deleted HCT116, pilot screen, cell-based, HCT116 clonal line, CellTiter-Glo (AID 824);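 note: 0% = 20 µM Hyamine control and 100% = vehicle cell control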
- test parameters: 60 h, at 10 µM, active compounds read low
Records with an inconclusive call do not appear. Active and inactive are the calls of the source.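 Rule for the calls: active = viability at or below 27.92% in each of two runs, the all-compound median minus 4 SD; inconclusive = no clear call, values can overlap the other calls; inactive = the rest.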
measured quantity: viability

1) Cc1ccc(-n2nnc3c(=O)n(Cc4cccc(C)c4)cnc32)cc1	93.7% (inactive)
2) CCOC12NC(=O)CC(=O)N1C(c1ccccc1)=CS2 (centres undefined)	104% (inactive)
3) CCc1c(C)sc(NC(=O)c2cc(C3CC3)on2)c1C#N	102% (inactive)
4) c1ccc(CNn2c(N3CCOCC3)nc3ccccc32)cc1	93.2% (inactive)
5) CCc1ccccc1N1CC23C=CC(O2)C(C(=O)OC)C3C1=O (centres undefined)	99% (inactive)
6) CC(=O)c1ccc(NC(=O)CSc2nc3nc(C)cc(C)n3n2)cc1	93.9% (inactive)
7) CCn1c(=NC(=O)CSC(C)=O)sc2cc(OC)ccc21	77.2% (inactive)
8) CC(=O)c1ccc(NC(=O)C2CCC(C)(C(=O)O)C2(C)C)cc1 (centres undefined)	106% (inactive)
9) Cc1c(C(=O)NCC2CCCO2)sc2nc(-c3ccccc3)cn12 (centres undefined)	95.1% (inactive)
10) CC(C)Cc1cc(C(=O)Nc2ccc(F)cc2F)no1	98.6% (inactive)
11) CCOC(=O)C1=C(O)/C(=C/N(C)C)N=C1C	106% (inactive)
12) CC1CCCC(C)N1CCCNC(=O)Cn1cc2c(n1)CCCC2 (centres undefined)	92.5% (inactive)
13) C=CCn1c(NCc2cc(C)ccc2O)nc2ccccc21	70.6% (inactive)
14) CC(C)(C)NCCCCOc1ccc(F)cc1	101% (inactive)
15) COc1ccc(OC)c(NC(=O)Nc2ccccc2C)c1	95.9% (inactive)
16) CCN1CCN(C(=O)Nc2ccc(Cc3ccc(NC(=O)N4CCN(CC)CC4)cc3)cc2)CC1	86.7% (inactive)
17) COc1ccc(C2CC(=O)N3CN(c4ccc(C)c(Cl)c4)CSC3=C2C#N)cc1 (centres undefined)	89.5% (inactive)
18) CCCn1c(CNc2ccc(Br)cc2)nc2ccccc21	82.7% (inactive)
19) COc1ccc(NC(=O)Nc2ccc3nccnc3c2)cc1	68.7% (inactive)
20) O=C(c1ccco1)N1CCN(C(=O)c2oc(=O)c3ccccc3c2-c2ccccc2)CC1	98.5% (inactive)
21) COc1ccc(N2CCN(C(=O)C3CCCN(S(=O)(=O)c4cccc5cccnc45)C3)CC2)cc1 (centres undefined)	68.2% (inactive)
22) CCOC(=O)C1C(=O)CC(C)(O)C(C(=O)OCC)C1c1cccs1 (centres undefined)	89.2% (inactive)
23) O=C(NCCc1ccccc1)c1ccc(Br)o1	103% (inactive)
24) CCCOc1ccc(C2c3c(oc4cc(C)c(C)cc4c3=O)C(=O)N2CCCN(C)C)cc1OCC (centres undefined)	97.7% (inactive)
25) CCOc1ccc(Nc2ncnc3c2cnn3-c2ccccc2)cc1	108% (inactive)
26) O=C(CCNS(=O)(=O)c1cccc2nsnc12)NC1CCCc2ccccc21 (centres undefined)	90.3% (inactive)
27) COc1cc(OC)cc(OCC(O)Cn2cnc3cc(C)c(C)cc32)c1 (centres undefined)	80.3% (inactive)
28) CC(=O)C1=C(C)N=c2s/c(=C/c3ccc4c(c3)OCO4)c(=O)n2C1c1ccc(N(C)C)cc1 (centres undefined)	89.5% (inactive)
29) O=S(=O)(NCCN1CCCC1)c1cccc2cccnc12	92.9% (inactive)
30) O=C(O)c1c2c(nc3ccc(S(=O)(=O)N4CCC(C(=O)N5CCCCC5)CC4)cc13)CCCC2	92.8% (inactive)
31) O=C(C1CCN(S(=O)(=O)c2cccc3cccnc23)CC1)N1CC=C(c2ccccc2)CC1	83% (inactive)
32) CCOC(=O)N1CCN(C(=O)CN(c2cc(C(F)(F)F)ccc2Cl)S(C)(=O)=O)CC1	99% (inactive)
33) COc1ccccc1CC1(C)NC(=O)N(CC(=O)N2CC(C)OC(C)C2)C1=O (centres undefined)	97.9% (inactive)
34) O=C(NCC1CCCO1)c1ccc2nc(N3CCCCC3)sc2c1 (centres undefined)	96.8% (inactive)
35) COc1ccc(CCNc2nc(=O)[nH]nc2C)cc1OC	96.5% (inactive)
36) Cc1cc2ccccc2n1CCNC(=O)C(C)(C)C	103% (inactive)
37) COc1cccc(-n2c(Cc3cc(=O)[nH]c(=O)[nH]3)nnc2SCC(=O)N2CCCCC2)c1	96.8% (inactive)
38) COC(=O)c1c(NC(=O)CSc2nnnn2-c2ccccc2)sc2c1CCC(C)C2 (centres undefined)	78.3% (inactive)
39) CCCCC(CC)CNC(=O)c1[nH]c(C)c(C(C)=O)c1C (centres undefined)	63.8% (inactive)
40) O=C(c1oc(=O)c2ccccc2c1-c1ccccc1)N1CCN(C2CCCCC2)CC1	97.4% (inactive)
41) COC(=O)c1ccc2c(c1)NC(=O)C1CCCN21 (centres undefined)	89.8% (inactive)
42) Cc1cccc(OCC(=O)NCc2ccncc2)c1C	104% (inactive)
43) O=C(CSc1ccccn1)c1ccc2c(c1)OCO2	96.2% (inactive)
44) CCc1ccc(N(CC(=O)NC2CCCCC2)S(=O)(=O)c2c(C)noc2C)cc1	92.3% (inactive)
